- Test system: OVCAR-5
- protocol.details: NCI tumour cell line growth inhibition, 48 h
Activity calls are given as the source filed them. Cut-off read from the data, not from the text of the source: active = GI50 up to about 1.1 µM and inactive = higher.
Quick list: GI50 per entry.

Known GI50 results, listed for orientation:
molecule: O=c1[nH]c(=O)n(C2CC(O)C(CO)O2)cc1I (stereo not given)
GI50: > 100 µM (inactive)
//
molecule: CCOC(=O)c1c2ccc(/C=C/C(=O)OC)ccc-2c(C(=O)OCC)c1N
GI50: > 100 µM (inactive)
//
molecule: O=C(Cn1c(=O)oc2ccc(C(=O)c3ccc(F)cc3)cc21)c1ccccc1
GI50: > 100 µM (inactive)
//
molecule: CCN(CC)c1ccc2cc(-c3csc(-c4ccc(N(C)C)cc4)n3)c(=O)oc2c1
GI50: > 100 µM (inactive)
//
molecule: Cn1c(=O)oc2cc(Br)ccc21
GI50: > 100 µM (inactive)

Ask: Kindly state the measured GI50 obtained for `CN(C)CCNCc1ccc2c(-c3ccccc3)nc3cc(Cl)c(Cl)cc3n12` with OVCAR-5.
Result: 10.6 µM (inactive)

Ask: Kindly state the measured GI50 obtained for `CC(C)(C)c1ccc(-c2nc3ccccc3c(=O)o2)cc1` with OVCAR-5.
Result: 44.2 µM (inactive)

Ask: Kindly state the measured GI50 obtained for `CCOCC(=O)N(C)c1cccc2c3c(n(C)c12)CCCCC3` with OVCAR-5.
Result: > 100 µM (inactive)

Ask: Kindly state the measured GI50 obtained for `COc1ccc(/C(=N\Nc2ccccn2)c2ccccn2)cc1` with OVCAR-5.
Result: 2.54 µM (inactive)

Ask: Kindly state the measured GI50 obtained for `O=c1c2cc3c(=O)n4c(cc(-c5ccccc5)c5cc(Cl)ccc54)nc3cc2nc2cc(-c3ccccc3)c3cc(Cl)ccc3n12` with OVCAR-5.
Result: > 100 µM (inactive)

###

- Test system: OVCAR-4
- protocol.details: NCI tumour cell line growth inhibition, 48 h
Activity calls are given as the source filed them. No stated cut-off is given here; in the data, active = GI50 up to about 1.1 µM and inactive = higher.
Valid outcomes are listed here; reply with one: Yes = active, No = inactive

Consider the following illustrative entries.
molecule: CCOC(=O)C(SCCO)C(C(=O)OCC)n1cnc2c(N)ncnc21 (stereo not given)
assigned.class: No
//
molecule: O=C(NCc1ccccc1)c1cnc(Cl)cn1
assigned.class: No
//
molecule: O=C(/C=C/c1ccc(Cl)cc1)c1ccc(Cl)c(Cl)c1
assigned.class: No

Ask: Outcome? [N-]=[N+]=C1C(=O)C2CC3CC1CC2C3 (stereo not given)
Result: No

Ask: Outcome? `Cn1cnc([N+](=O)[O-])c1[Se]c1ncnc2nc[nH]c12`
Result: No

Ask: Outcome? C=CCN1C(=O)/C(=C/c2ccccc2)N=C1SC1OC(COC(=O)c2ccccc2)C(OC(=O)c2ccccc2)C1OC(=O)c1ccccc1 (stereo not given)
Result: No

###

- Tested on: COLO 205
- protocol.details: NCI tumour cell line growth inhibition, 48 h
Activity calls are given as the source filed them. No stated cut-off is given here; in the data, active = GI50 up to about 1.1 µM and inactive = higher.
Valid outcomes are listed here; reply with one: y = active, n = inactive

Consider the following illustrative entries.
compound: NCCSS(=O)(=O)CCN
assigned.class: n
--
compound: C/C=C1/CN2[C@@H](C3=C[C@@H]4[C@@H]5N(C3=O)c3ccccc3[C@@]53CCN5C/C(=C/C)[C@@H]4C[C@H]53)C[C@@]34c5ccccc5N5C(=O)CC=C([C@H]1C[C@H]23)[C@H]54
assigned.class: n
--
compound: NC(=O)c1cccc(/N=c2\oc3ccc(Br)cc3cc2-c2nc3ccccc3[nH]2)c1
assigned.class: n
--
compound: O=c1c(F)cn(Cc2c(Cl)cccc2Cl)c(=O)n1Cc1c(Cl)cccc1Cl
assigned.class: n
--
compound: Cc1c(N)c(C#N)c2n(C)c3ncccc3n2c1=O
assigned.class: n

Ask: Outcome? `O=C(O)C(Cc1ccccc1-c1ccccc1)C(=O)O`
Result: n

Ask: Outcome? `CCN(CC)c1ccc2cc(-c3csc(-c4ccc(N(C)C)cc4)n3)c(=O)oc2c1`
Result: n

Ask: Outcome? `COc1ccc(-c2cc(O)c3cc(C)cnc3n2)cc1`
Result: n

Ask: Outcome? O=c1nc(N2CCN(c3ccccc3)CC2)ccn1C1OC(CO)C(O)C1O (stereo unspecified)
Result: n

Ask: Outcome? `COc1ccc(/C(=N\Nc2ccccn2)c2ccccn2)cc1`
Result: y

Ask: Outcome? CN(CN1C(=O)C2Cc3ccccc3CN2C1=O)c1ccccn1 (stereo unspecified)
Result: n

Ask: Outcome? COc1cc(CCCC(O)COc2cccc3c2C2(O)CCCCCC32)cc(OC)c1 (stereo unspecified)
Result: n

Ask: Outcome? `Cn1c(=O)oc2cc(Br)ccc21`
Result: n

Ask: Outcome? `COc1cc(NC(C)=O)ccc1C(=O)N/N=C/c1ccc(Cl)cc1Cl`
Result: n

Ask: Outcome? COc1cc(C2c3cc4c(cc3OC3(OC)COC(=O)C23)OCO4)cc(OC)c1OC (stereo unspecified)
Result: y

Ask: Outcome? `CC(C)/C(Cl)=N\OC(=O)Nc1ccccc1F`
Result: n

Ask: Outcome? Cc1cccc(C)c1NC(=O)C1C(=O)N(c2c(C)cccc2C)C(=O)/C1=N\N (stereo unspecified)
Result: n

###

- Test system: 786-0
- protocol.details: NCI tumour cell line growth inhibition, 48 h
Active and inactive are the calls of the source. Cut-off read from the data, not from the text of the source: active = GI50 up to about 1.1 µM and inactive = higher. Where a SMILES comes first, the peptide text is derived from it.
Valid outcomes are listed here; reply with one: True = active, False = inactive

compound: COc1ccc(/C=C/C(=O)c2cc(C(=O)O)c(OC)cc2OC)cc1OC
assigned.class: False
--
compound: COc1cc(C2C=C(c3ccccc3)Oc3cc4c(cc32)OCO4)cc(OC)c1OC (configuration not stated)
assigned.class: True
--
compound: N#Cc1c(N2CCCC2)nsc1Nc1ccccc1
assigned.class: False

Ask: Outcome? `COC(=O)/C(=C\c1ccco1)P(=O)(OC)OC`
Result: False

Ask: Outcome? `O=C(/C=C/c1ccc(Cl)cc1)c1ccc(Cl)c(Cl)c1`
Result: False

Ask: Outcome? `Cc1ccc(C2=NN=C3C(c4ccccc4)=Nc4ccccc4N3C2)cc1`
Result: False

Ask: Outcome? CCOP(C)(=O)C(N)Cc1ccc(OC)c(OC)c1 (configuration not stated)
Result: False

Ask: Outcome? COC[C@H]1OC(=O)c2coc3c2[C@@]1(C)C1=C(C3=O)[C@@H]2CCC(=O)[C@@]2(C)C[C@H]1OC(C)=O [WORTMANNIN]
Result: False

Ask: Outcome? `Cc1cccc(-c2nnc3s/c(=C\c4ccc5c(c4)OCO5)c(=O)n23)c1`
Result: False

Ask: Outcome? CCOC(=O)c1c(-c2ccc(Cl)cc2)c(C#N)c(=S)n(C2OC(COC(C)=O)C(OC(C)=O)C(OC(C)=O)C2OC(C)=O)c1C (configuration not stated)
Result: False

Ask: Outcome? `Cc1nc(N)sc1C(=O)/C=C/c1ccc([N+](=O)[O-])cc1`
Result: False

Ask: Outcome? `COC(=O)c1cc(/C=C\c2cc(OC)ccc2OC)ccc1OC`
Result: False

Ask: Outcome? `CCOC(=O)/C(C(C)=O)=C1/N[C@H](C(=O)OCC)CS1`
Result: False

Ask: Outcome? `C=C(C)COC(=O)COCC(=O)OCC(=C)C`
Result: False

Ask: Outcome? CC(C)CC(NC(=O)C(Cc1ccccc1)NC(=O)C(Cc1c[nH]c2ccccc12)NC(=O)CNC(=O)C(N)Cc1ccc(O)cc1)C(=O)O (configuration not stated) (H-YGWFL-OH; configuration not given here)
Result: False

Ask: Outcome? `CN(C)CCNC1=CC(=O)c2nc3ccccc3c3ccnc1c23`
Result: False

###

- Test system: UACC-62
- protocol.details: NCI tumour cell line growth inhibition, 48 h
Activity calls are given as the source filed them. No stated cut-off is given here; in the data, active = GI50 up to about 1.1 µM and inactive = higher.
observed.property: GI50

Known GI50 results, listed for orientation:
compound: CC1(C)O[C@H](C(=O)O)[C@@H](C(=O)O)O1
GI50: > 100 µM (inactive)
--
compound: [N-]=[N+]=NC1(Cc2ccccc2)C(=O)Nc2ccccc2C1=O (stereo not given)
GI50: > 100 µM (inactive)
--
compound: COc1cc(Cl)cc(N(O)C(C)=O)c1OCc1ccccc1
GI50: 49.7 µM (inactive)

Ask: Kindly state the measured GI50 obtained for NC(=S)N/N=C1/C(=O)N(c2ccc(Cl)cc2Cl)C(=O)C(=O)C1c1nc2ccccc2s1 (stereo not given) with UACC-62.
Result: > 100 µM (inactive)

Ask: Kindly state the measured GI50 obtained for `O=c1[nH]cnc2c(COCCO)c[nH]c12` with UACC-62.
Result: > 100 µM (inactive)

###

- Test system: EKVX
- protocol.details: NCI tumour cell line growth inhibition, 48 h
The source made the active and inactive calls. Cut-off read from the data, not from the text of the source: active = GI50 up to about 1.1 µM and inactive = higher.
Quick list: GI50 per entry.

Known GI50 results, listed for orientation:
compound: CCOC(=O)C1C(c2ccc3c(c2)OCO3)c2c(n[nH]c2O)CC1(O)OCC (stereo unspecified)
result.value: > 100 µM (inactive)
//
compound: COCN(CCC1=CCCCC1)C(=O)OC
result.value: > 100 µM (inactive)
//
compound: COc1cccc(NC(=O)CC(=O)N2NC(C)C(/N=N/c3cccc(C(=O)O)c3)C2=O)c1 (stereo unspecified)
result.value: > 100 µM (inactive)
//
compound: Cc1ccc(Nc2sc(C)cc2C#N)c([N+](=O)[O-])c1
result.value: > 100 µM (inactive)
//
compound: O=S1(=O)CCC2=CC(C(F)(F)F)=CC(C(F)(F)F)=CN21
result.value: 2.93 µM (inactive)

Ask: Any idea what its GI50 is? The compound is `N=C(N)Nc1nc2cc([N+](=O)[O-])ccc2[nH]1`
Result: 41.6 µM (inactive)
